Below, each entry is listed with its recorded EC50.
# Test Target: T1, recombinant Macaque Monkey IL-15 (MyBiosource cat. no. MBS948894) (Rhesus macaque / Cynomolgus monkey, UniProt P40221 49-162 (Chlorocebus aethiops entry))
# T1 construct: Produced in yeast; also called Rhesus macaque IL-15; recombinant monkey IL-15; not shown: additional N-terminal His tag
# T1 sequence (P40221 49-162): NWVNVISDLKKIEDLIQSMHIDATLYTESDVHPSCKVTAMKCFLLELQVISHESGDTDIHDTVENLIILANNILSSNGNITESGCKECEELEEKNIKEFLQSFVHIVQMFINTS
# Assay Method Text: ELISA, plate-bound Macaque Monkey IL-15; printed as BC50 (half-maximal binding concentration)
Give just the number in nM; leave the unit off.

Binder	Measured Number
huB-E29-18 (antibody, human IgG1, kappa, V domains shown, Humanized B-E29 variant; human IgG1 (G1m3) / kappa (Km3), produced in CHO cells; also called huVH1/huVL4) VH: EVRLMASGGGLVQPGGSLRLSCAASEFTFSNYAMSWVRQAPGKGLEWVATISRGGDYTYYPDSVKGRFTISRDNSKNTLYLQMNSLRAEDTAVYYCARRVSMITGGWAMDYWGQGTLVTVSS VL: DVVMTQSPLSLPVTLGQPASISCRSSQSIVDITGNTYLEWYQQRPGQSPRLLIYKVFNRFSGVPDRFSGSGSGTDFTLKISRVEAEDVGVYYCFQESFVPYTFGQGTKLEIKR	0.367
huB-E29-24 (antibody, human IgG1, kappa, V domains shown, Humanized B-E29 variant; human IgG1 (G1m3) / kappa (Km3), produced in CHO cells; also called huVH18/huVL1) VH: EVQLVESGGGLVQPGGSLRLSCAASEFTFSNYAMSWVRQAPGKGLEWVATISRGGDYTYYPDSVKGRFTISRDNSKNTLYLQMNSLRAEDTAVYYCARRVSMITGGYAMDYWGQGTLVTVSS VL: DVVMTQSPLSLPVTLGQPASISCRSSQSIVDITGNTYLEWYQQRPGQSPRLLIYKVFNRFSGVPDRFSGSGSGTDFTLKISRVEAEDVGVYYCFQDSFVPYTFGQGTKLEIKR	0.113

EC50 reported for this binder huB-E29-4 (antibody, human IgG1, kappa, V domains shown, Humanized B-E29 variant; human IgG1 (G1m3) / kappa (Km3), produced in CHO cells; also called huVH1/huVL2) VH: EVRLMASGGGLVQPGGSLRLSCAASEFTFSNYAMSWVRQAPGKGLEWVATISRGGDYTYYPDSVKGRFTISRDNSKNTLYLQMNSLRAEDTAVYYCARRVSMITGGWAMDYWGQGTLVTVSS VL: DVVMTQSPLSLPVTLGQPASISCRSSQSIVDITGNTYLEWFQQRPGQSPRLLIYKVFNRFSGVPDRFSGSGSGTDFTLKISRVEAEDVGVYYCFQDSFVPYTFGQGTKLEIKR : 0.5
